- procedure summary: Cytotoxicity against human MT2 cells assessed as growth inhibition
- Format: cell-based
- particulars: MT2 cells
endpoint: CC50

Reported CC50, molecule Cc1ccnc2c1NC(=O)c1cccnc1N2C1CC1 : ____ > 100 µM

* * *

- procedure summary: Aqueous solubility of the compound in Britton-Robinson buffer at pH 6.5 after 48 hrs by shake-flask method
- Format: physicochemical
endpoint: solubility thermodynamic at 48 h (µg/mL)
Give the quantity in µg/mL, number only.

INSERT INTO measurements (molecule_smiles, endpoint, measured) VALUES
  ('CN1C(C(=O)Nc2ccccn2)=C(O)c2ccccc2S1(=O)=O', 'solubility thermodynamic at 48 h', 7.2),
  ('Cc1cc(C#N)cc(C)c1Nc1nc(Nc2ccc(C#N)cc2)nc(OCCCN2CCOCC2)n1', 'solubility thermodynamic at 48 h', 13.3),
  ('Cc1cc(C)c(Nc2nc(Nc3ccc(C#N)cc3)nc(OCCCN3CCOCC3)n2)c(C)c1', 'solubility thermodynamic at 48 h', 15.3),
  ('Cc1cc(C)c(Nc2nc(Nc3ccc(C#N)cc3)nc(OCCN3CCOCC3)n2)c(C)c1', 'solubility thermodynamic at 48 h', 4.42);

Note: attention shifts to another entry.
Reported solubility thermodynamic at 48 h, compound Cc1cc(C)c(Nc2cc(OCCN3CCOCC3)nc(Nc3ccc(C#N)cc3)n2)c(C)c1 : ____ 12.5

Hey, just so you know, these numbers are from ChEMBL document CHEMBL2417542.
